- System under test: porcine pancreatic α-amylase (Sus scrofa, UniProt P00690)
- Construct: purchased BioVision K482-100
- Sequence (P00690 16-511): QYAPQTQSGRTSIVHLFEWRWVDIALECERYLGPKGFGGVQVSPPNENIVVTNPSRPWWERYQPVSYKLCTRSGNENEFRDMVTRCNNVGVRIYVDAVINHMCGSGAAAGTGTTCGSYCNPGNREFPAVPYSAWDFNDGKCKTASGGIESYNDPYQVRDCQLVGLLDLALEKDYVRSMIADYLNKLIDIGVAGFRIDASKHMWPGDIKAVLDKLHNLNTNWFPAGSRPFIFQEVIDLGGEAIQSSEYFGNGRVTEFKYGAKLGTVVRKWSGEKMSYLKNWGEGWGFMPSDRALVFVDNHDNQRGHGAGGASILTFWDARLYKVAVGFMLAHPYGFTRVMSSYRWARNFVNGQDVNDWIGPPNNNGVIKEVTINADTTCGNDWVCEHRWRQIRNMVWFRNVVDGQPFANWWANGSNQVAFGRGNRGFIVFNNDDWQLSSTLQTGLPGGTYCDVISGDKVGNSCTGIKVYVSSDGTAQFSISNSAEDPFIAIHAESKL
- Assay remarks: In vitro α-amylase inhibition assay (BioVision kit / modified DNSA method)
- Type: biochemical
- Condition label: conc 100 (µg/mL), Table 1S
- Description: The α-amylase inhibition assay was performed using a modified DNSA (3,5-dinitrosalicylic acid) method. […] Absorbance was measured at 540 nm using a microplate reader. […] The percentage inhibition was calculated as: [(Acontrol–Asample)/Acontrol] × 100, where Acontrol represents enzyme activity without inhibitor. IC50 values were determined from dose-response curves using GraphPad Prism. Kinetic parameters (KActivity) were derived from ∆RFU (Relative Fluorescence Units) and slope values Table 1S.
Parameter: %inh α-amylase (%)

Compound: COc1ccc(Cc2nnc(SCC(=O)Nc3ccc(C(C)=O)cc3)n2-c2ccccc2)cc1 [Compound 4]
System under test: porcine pancreatic α-amylase (Sus scrofa, UniProt P00690)
%inh α-amylase [%]: 93.1

Compound: COc1ccc(Cc2nnc(SCC(=O)Nc3ccccc3)n2-c2ccccc2)cc1 [Compound 3]
System under test: porcine pancreatic α-amylase (Sus scrofa, UniProt P00690)
%inh α-amylase [%]: 92.3

Compound: COc1ccc(Cc2nnc(SCC(=O)Nc3ccc(C(=O)O)cc3)n2-c2ccccc2)cc1 [Compound 6]
System under test: porcine pancreatic α-amylase (Sus scrofa, UniProt P00690)
%inh α-amylase [%]: 91.3

Compound: CCOC(=O)c1ccc(NC(=O)CSc2nnc(Cc3ccc(OC)cc3)n2-c2ccccc2)cc1 [Compound 8]
System under test: porcine pancreatic α-amylase (Sus scrofa, UniProt P00690)
%inh α-amylase [%]: 88.7

Compound: COc1ccc(Cc2nnc(SCC(=O)Nc3ccc(Br)cc3)n2-c2ccccc2)cc1 [Compound 10]
System under test: porcine pancreatic α-amylase (Sus scrofa, UniProt P00690)
%inh α-amylase [%]: 92.3

Compound: COc1ccc(Cc2nnc(SCC(=O)Nc3ccc(O)cc3)n2-c2ccccc2)cc1 [Compound 9]
System under test: porcine pancreatic α-amylase (Sus scrofa, UniProt P00690)
%inh α-amylase [%]: 90
